Assay: yeast display, Sf9 membrane polyspecificity reagent, FACS + sequencing; frameworks hold sequencing errors
metric: polyreactivity (PSR sort gate)

[[record]]
sequence = "QVQLVESGGGLVQAGGSLRLSCAASGNTFYQYAMGWYRQAPGTERELVAAISSSGGSTYYADSVKGRFTISRDNAKKTVYLQMNSLKPEDTAVYYCATDKSYGYYYWGQGTQVTVSS"
result = "low polyreactivity"

[[record]]
sequence = "QVQLVESGGGLVQAGGSLRLSCAASGSTFEYYAMVWYRQAAGKERELVDRINWSGGSTYYADSVKGRFTISRDNAKNTVYLQMNSLKPEDTAVYYCNRKLTRFTCFPLAYWGQGTQVTVSS"
result = "low polyreactivity"

[[record]]
sequence = "QLQRVESGGGLVQAGGSLRLSCAASGSTFYPNAMGWYRQAPAKEREFVAAISTSAGRTYYADSVKGRFTISRDNAKNTVYLQMNSLKPEDTAVYYCNARYWVYYVYEYDSWGQGTQVTVSS"
result = "low polyreactivity"


====

Experiment: yeast display, Sf9 membrane polyspecificity reagent, FACS + sequencing; frameworks hold sequencing errors
metric: polyreactivity (PSR sort gate)

[[record]]
sequence = "QVQLVESGGGLVQAGGSLRLSCAASGIILWYNVMGWYRQAPGKERELVASITGDGDDTYYADSVKGRFTMSRDNAKNTVYLQMNSLKPEDTAVYYCAKENYGILYSTLYDYWGQGTQVTVSS"
result = "low polyreactivity"

[[record]]
sequence = "QVQLVESGGGLVQAGGSLRLSCSASGSTFGRYVMGWYRQPPGKERELVAAISKNAGSTYYADSVKGRFTISRDNAKNTVYLQMNSLKPEDTAVYYCNTVYYWYSPLNYWGQGTQVTVSS"
result = "high polyreactivity"

[[record]]
sequence = "QVQLVESGGGLVQAGGSLRLSCAASGRIFYGYAKGWYRQAPGKERELVASISRRGYSTYYADSVKGRFTISRDNAKNTVYLQMNSLKPEDTAVYYCAAGYYPFNYWCQGTQVTVSS"
result = "high polyreactivity"

[[record]]
sequence = "QVQLVESGGGLVQAGGSLRLSCAASGITFELYAMGLYIQAPGKERELVAAISSNGGITFYADSVKGRFTISRDNAKNTVYLQMNSLKTEDTAVYYCAARGYIRGPSKLDYWGQGTQVTVSS"
result = "high polyreactivity"

[[record]]
sequence = "QVQHVESGGGLVQAGGSLRLSCAASGRIFNRYAMVWYRQAPGKERELVAAISASGDNTYYADSVKGRFTISRDNAKNTVYLQMISLKPEDTAVFYCAARYYTYLHFSMYYWGQGTQVTVSS"
result = "high polyreactivity"

[[record]]
sequence = "QVQLVESWGGLVQAGGSLRLSCAASRIIFRWYAMGWYRKAPGTERELVAAITSDGNTYYADSVKGRFTISRDNAKNTVYLQMNSLKPEDTAVYYCAARLSYYCRMNYWGQGTQVNVSS"
result = "high polyreactivity"

[[record]]
sequence = "QVQLVESGGRLVQAGGSLRLSGAASGRTFAKYAMGWYRQAPGKERELVAAINSSGDSTYYADSVKGRFTISRDNAKNTVYLQMNSLKPEDTAVYYCATRYRSSQWYSPYKYDYWGQGTQVTVSS"
result = "low polyreactivity"

[[record]]
sequence = "QVQLVESGGGLVQAGGSLRLSCAASGRIGTNAMGCYRQAPGKERELVAAISKRGGSTHYADSVKGRFTISRDNAKNTVYLQMNSMKPEDTAVYYCAASRAVGYDYWGQGTEVTVSS"
result = "high polyreactivity"

[[record]]
sequence = "QVQRVESGGGLVQAGGSLRLSCAHSGRTFPRYVMGRYRQAPAKERELVAAITSSGGSTYYADSVKGRFTISRDNAKNTVYLQMNSLKPEDTAVYYCAAYARPYSGPYAYRLDYWGQGTQVTVSS"
result = "high polyreactivity"

[[record]]
sequence = "QVQLVESGGGLVQAGGSLRLSCAASGGTFHSNAMGWYRQAPGKERELVAAISWSDDTTYYADSVKGRFTISRDNAKNTVYLQINSLKPDDTAVYYCATVFFVLPPSRFDSWGQGTQVTVSS"
result = "low polyreactivity"

[[record]]
sequence = "QVQLVESGGGLVQAGGSLRLSCAASGSTYYNAMGWYRQAPGKERELVAAIRFRSGSTYYADSVKGRFTISRDNAKNTVYLQMNSLKPEDTAVYYCNKVPYRGYRRYGYWGQGTQVTVSS"
result = "high polyreactivity"

